Task for the reader: assign each of the following compounds its reported Km.
# Tested on: EA + ED28-digoxigenin
# assay notes: Kinetic properties of substrates with EA + ED28-digoxigenin
# Format: biochemical
# measurement conditions: no antibodies, four or five substrate concentrations
# Experimental: The ability of the subject compounds to act as substrates for β-galactosidase and ED28-digoxigenin+EA was measured and compared with the results obtained with ONPG. ED28-digoxigenin+EA are a β-galactosidase α fragment-digoxigenin conjugate and the α complementation acceptor, respectively. ED28-digoxigenin consists of β-galactosidase amino acids 1-46, with cysteines at positions 1 and 46, and digoxgenin conjugated to the cysteines. […]
Output spec: scalar in mg/mL, unitless text.

Prompt line: Please give measured Km of the following entry: `COc1cc([N+](=O)[O-])ccc1O[C@@H]1O[C@H](CO)[C@H](O)[C@H](O)[C@H]1O`
Response line: 0.28

Prompt line: Please give measured Km of the following entry: O=[N+]([O-])c1ccccc1O[C@@H]1O[C@H](CO)[C@H](O)[C@H](O)[C@H]1O [ONPG, o-nitrophenyl-β-D-galactopyranoside, reference compound]
Response line: 0.15

Prompt line: Please give measured Km of the following entry: O=[N+]([O-])c1ccc(O[C@@H]2O[C@H](CO)[C@H](O)[C@H](O)[C@H]2O)cc1[N+](=O)[O-] [3,4 DNPG, 3,4-Dinitrophenyl-β-D-galactopyranoside]
Response line: 0.19

Prompt line: Please give measured Km of the following entry: `O=Cc1cc([N+](=O)[O-])ccc1O[C@@H]1O[C@H](CO)[C@H](O)[C@H](O)[C@H]1O`
Response line: 0.14

Prompt line: Please give measured Km of the following entry: `N#Cc1cc(O[C@@H]2O[C@H](CO)[C@H](O)[C@H](O)[C@H]2O)ccc1[N+](=O)[O-]`
Response line: 0.14

The measurements presented in this section are drawn from patent US5444161A.
